pEC50 reference
molecular target: human S1P1 receptor (S1PR1) (Homo sapiens, UniProt P21453); construct: host or cells: CHO-K1; test: Intracellular Ca2+ release (method 1), agonist potency, S1P1; type: cell-based; conditions: CHO-K1 cells expressing human S1PR1; cells given as bound
Sequence (P21453 whole entry): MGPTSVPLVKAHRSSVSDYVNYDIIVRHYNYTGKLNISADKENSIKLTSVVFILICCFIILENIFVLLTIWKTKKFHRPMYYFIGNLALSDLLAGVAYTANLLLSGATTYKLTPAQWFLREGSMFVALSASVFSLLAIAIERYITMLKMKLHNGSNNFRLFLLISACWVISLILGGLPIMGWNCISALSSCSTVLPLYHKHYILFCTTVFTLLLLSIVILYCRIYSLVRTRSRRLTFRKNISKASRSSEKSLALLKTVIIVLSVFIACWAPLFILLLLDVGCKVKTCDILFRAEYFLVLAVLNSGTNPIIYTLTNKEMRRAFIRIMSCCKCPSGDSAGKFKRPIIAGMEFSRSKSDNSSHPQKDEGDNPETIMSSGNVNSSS
pEC50: −log10 of the molar value.
Endpoint Label: pEC50

Compound | Endpoint Label | Value Measured
CCOc1ccc(C#Cc2ccc3c(c2)C2(CC2)CN(CC(C)CC(=O)O)C3)cc1 (stereo not drawn) [Compound 63] | pEC50 | < 6.00
CC(CC(=O)O)CN1Cc2ccc(C#Cc3cccc(F)c3F)cc2C2(CC2)C1 (stereo not drawn) [Compound 66] | pEC50 | < 6.00
O=C(O)CN1Cc2ccc(OCc3c(Cl)cccc3Cl)cc2C2(CC2)C1 [Compound 12] | pEC50 | < 6.00

----------
target: human S1P4 receptor (S1PR4) (Homo sapiens, UniProt O95977); construct: host or cells: CHO-K1; assay: Intracellular Ca2+ release (method 1), agonist potency, S1P4; format: cell-based; settings: CHO-K1 cells expressing human S1PR4
Sequence (O95977 whole entry): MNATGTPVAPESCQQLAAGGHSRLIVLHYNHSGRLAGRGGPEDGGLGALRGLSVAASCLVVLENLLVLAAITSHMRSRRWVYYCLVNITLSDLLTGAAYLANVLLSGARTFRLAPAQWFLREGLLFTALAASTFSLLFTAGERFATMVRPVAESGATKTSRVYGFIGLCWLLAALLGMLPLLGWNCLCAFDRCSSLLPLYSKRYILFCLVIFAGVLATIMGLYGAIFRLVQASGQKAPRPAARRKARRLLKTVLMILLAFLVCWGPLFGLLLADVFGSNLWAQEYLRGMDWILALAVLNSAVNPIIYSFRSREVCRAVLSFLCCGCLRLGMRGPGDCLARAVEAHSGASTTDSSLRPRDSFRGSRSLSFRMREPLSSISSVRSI
pEC50: −log10 of the molar value.
Endpoint Label: pEC50

Compound | Endpoint Label | Value Measured
O=C(O)CCCN1Cc2ccc(OCc3cccc(F)c3F)cc2C2(CC2)C1 | pEC50 | 6.00 to 7.00
O=C(O)CCCN1Cc2ccc(OCc3cccc(OC(F)(F)F)c3)cc2C2(CC2)C1 | pEC50 | 6.00 to 7.00
O=C(O)CCCN1Cc2ccc(OCc3ccccc3Cl)cc2C2(CC2)C1 | pEC50 | 6.00 to 7.00
O=C(O)CCCN1Cc2ccc(OCc3ccc(Cl)c(Cl)c3)cc2C2(CC2)C1 | pEC50 | 7.00 to 8.00
CC(CC(=O)O)CN1Cc2ccc(C#Cc3c(F)cccc3F)cc2C2(CC2)C1 (stereo not drawn) | pEC50 | 6.00 to 7.00
CC(=O)O.O=C(O)CCN1Cc2ccc(C#Cc3c(Cl)cccc3Cl)cc2C2(CC2)C1 | pEC50 | 6.00 to 7.00

----------
biological target: human S1P5 receptor (S1PR5) (Homo sapiens); construct: host or cells: CHO-K1; test: Intracellular Ca2+ release (method 1), agonist potency and efficacy, S1P5; type: cell-based; conditions: recombinant CHO-K1 cells expressing human S1PR5, aequorin, Gq/i5; Ca2+ release; read-out: S1P5 EC50 range
Sequence (Q9H228 whole entry): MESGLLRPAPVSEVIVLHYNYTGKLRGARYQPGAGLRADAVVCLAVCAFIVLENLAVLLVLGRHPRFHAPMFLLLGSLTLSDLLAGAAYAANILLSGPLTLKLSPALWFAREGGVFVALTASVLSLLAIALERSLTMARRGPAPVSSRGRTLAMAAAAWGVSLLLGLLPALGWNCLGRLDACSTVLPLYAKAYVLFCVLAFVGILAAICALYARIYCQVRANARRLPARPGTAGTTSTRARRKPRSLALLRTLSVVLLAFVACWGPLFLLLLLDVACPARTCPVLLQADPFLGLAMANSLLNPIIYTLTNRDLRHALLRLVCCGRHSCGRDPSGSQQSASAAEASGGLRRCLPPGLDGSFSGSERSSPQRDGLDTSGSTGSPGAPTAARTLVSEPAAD

Compound | Target System | EC50
O=C(O)CCCN1Cc2ccc(OCc3ccc(F)cc3)cc2C2(CC2)C1 [Compound 17] | human S1P5 receptor (S1PR5) (Homo sapiens) | 100 to 1000 nM
CCOc1ccc(C#Cc2ccc3c(c2)C2(CC2)CN(CCCC(=O)O)C3)cn1 [Compound 50] | human S1P5 receptor (S1PR5) (Homo sapiens) | 100 to 1000 nM
O=C(O)CCCN1Cc2ccc(OCc3ccc(F)c(F)c3)cc2C2(CC2)C1 [Compound 18] | human S1P5 receptor (S1PR5) (Homo sapiens) | 10 to 100 nM
O=C(O)C1(CN2Cc3ccc(C#Cc4ccc(OC5CCCC5)nc4)cc3C3(CC3)C2)CC1 [Compound 9] | human S1P5 receptor (S1PR5) (Homo sapiens) | 100 to 1000 nM
O=C(O)CCCN1Cc2ccc(C#Cc3ccc(OC(F)(F)F)c(F)c3)cc2C2(CC2)C1 [Compound 47] | human S1P5 receptor (S1PR5) (Homo sapiens) | < 10 nM
CC(CC(=O)O)CN1Cc2ccc(C#Cc3ccc(OC(C)C)nc3)cc2C2(CC2)C1 (centres unmarked) [Compound 59] | human S1P5 receptor (S1PR5) (Homo sapiens) | < 10 nM
O=C(O)CCCN1Cc2ccc(OCc3ccc(Cl)cc3)cc2C2(CC2)C1 [Compound 16] | human S1P5 receptor (S1PR5) (Homo sapiens) | 100 to 1000 nM
CC(C)c1ccc(C#Cc2ccc3c(c2)C2(CC2)CN(CC(=O)O)C3)cc1 [Compound 6, 2,2,2-trifluoroacetate] | human S1P5 receptor (S1PR5) (Homo sapiens) | 100 to 1000 nM
O=C(O)CCN1Cc2ccc(C#Cc3cccc(F)c3F)cc2C2(CC2)C1 [Compound 10] | human S1P5 receptor (S1PR5) (Homo sapiens) | < 10 nM
O=C(O)CCCN1Cc2ccc(OCc3c(Cl)cccc3Cl)cc2C2(CC2)C1 [Compound 15] | human S1P5 receptor (S1PR5) (Homo sapiens) | < 10 nM
O=C(O)CCCN1Cc2ccc(C#Cc3ccc(=O)n(CC4CC4)c3)cc2C2(CC2)C1 [Compound 4] | human S1P5 receptor (S1PR5) (Homo sapiens) | 1000 to 10000 nM
CCc1cccc(Cl)c1COc1ccc2c(c1)C1(CC1)CN(C(C)C(=O)O)C2 (centres unmarked) [Compound 28] | human S1P5 receptor (S1PR5) (Homo sapiens) | 10 to 100 nM
O=C(O)CCCN1Cc2ccc(OCc3ccccc3Cl)cc2C2(CC2)C1 [Compound 25] | human S1P5 receptor (S1PR5) (Homo sapiens) | < 10 nM
O=C(O)CCCN1Cc2ccc(OCc3cccc(F)c3)cc2C2(CC2)C1 [Compound 23] | human S1P5 receptor (S1PR5) (Homo sapiens) | 10 to 100 nM

Origin of measurements: patent US20210147381A1
